assay: qHTS Assay to Identify Small Molecule Activators of BRCA1 Expression; details: MCF7-BRCA1-FFLuc reporter, luminescence, 48 h; series mostly up to 46.1 µM; further: nearly all actives have a fitted effect of over 80% in size; further: potency means the concentration at half of the fitted maximal effect
Among all 380,000 compounds or so, about 4,000 (1.1%) were called active. About 3% were inconclusive and are not listed. This excerpt belongs to a sample that is enriched for actives.
Quantity: Potency

Examples with their reported Potency follow.
Compound	Potency
CN(C(=N)N)c1ccc(/C=C2\C=Cc3ccccc32)cc1	inactive
CCOC(=O)c1oc2ccc(S(=O)(=O)n3nc(-c4ccccc4OC)cc3N)cc2c1C	inactive
Cc1ccc(NC(=O)c2csc3c2CCCC3)cc1	12.6 µM (active)
COc1cc2nc(Cl)nc(NC3CC3)c2cc1OC	inactive
CCOC(=O)c1ccc(NC(=O)C2CC(=O)NC(=Nc3ccc(C)c(C)c3)S2)cc1 (configuration not stated)	inactive

Query string: Can you look up the measured Potency of O=C(NCc1ccccn1)c1cc(-c2ccccc2Cl)on1 for me?
Result string: 10 µM (active)

Query string: Note, next up: O=C(COc1ccccc1)OCc1cc(=O)n2nc(-c3cccs3)sc2n1
Result string: inactive

Query string: Another compound to look at: CCn1nnnc1SCC(=O)c1ccc(C)cc1C
Result string: 6.31 µM (active)

Query string: And what about the compound COc1cccc(N2CCN(S(=O)(=O)c3cc(Br)cc4c3N(C(=O)C3CC3)CC4)CC2)c1 ?
Result string: inactive

Query string: Again, but for S=C(c1ccc(-c2ccccc2)o1)N1CCCCC1
Result string: 3.98 µM (active)

Query string: Entry CCOc1ccc(CCNC(=O)c2csc3c2CCCCC3)cc1 please
Result string: inactive

Query string: Next up: CCS(=O)(=O)N1CCc2cc(C(=O)NCc3ccc(OC)cc3)ccc21
Result string: inactive

Query string: Next record, please: CC(=O)Nc1ccc(NC(=O)C2CCCN(S(=O)(=O)c3ccc4c(c3)CCCC(=O)N4)C2)cc1 (configuration not stated)
Result string: inactive

Query string: Then this compound: O=[N+]([O-])c1ccc(NC(=S)N2CCN(c3ccccn3)CC2)cc1
Result string: inactive

Query string: Continue with CCOC(=O)c1c(NC(=O)CSc2cn(CCNC(=O)c3cccc(C(F)(F)F)c3)c3ccccc23)sc2c1CCC2
Result string: inactive

Query string: Quick one: O=C(Cn1nc(CNc2ccc(Cl)cc2)[n+]2c1CCCCC2)c1ccc(Cl)cc1
Result string: inactive

Query string: Field entry: COc1ccc(-c2nc3ccccc3s2)cc1NC(=O)COc1ccccc1C
Result string: inactive

Query string: Next compound: CC(=O)Cn1ncc(N2CCOCC2)c(Br)c1=O
Result string: inactive

Query string: Proceed to O=C(CC(c1ccccc1)c1ccccc1)NCC(O)c1ccc([N+](=O)[O-])cc1 (configuration not stated)
Result string: inactive

Query string: Same question, O=C(COC(=O)c1ccccc1C(=O)c1ccccc1)c1ccco1 this time
Result string: inactive

Query string: Entry to check: CCCCOC(=O)Nc1nnc(CC(=O)NCc2ccccc2)s1
Result string: inactive

Query string: Moving on to the next compound: CCc1ccc(OCCCn2c(CCCNC(=O)C3CCCCC3)nc3ccccc32)cc1
Result string: inactive
